Value source: patent US8609836B2

assay_system: CDK4/CyclinD1 (h) (Homo sapiens, UniProt P11802)
Sequence (P11802 whole entry): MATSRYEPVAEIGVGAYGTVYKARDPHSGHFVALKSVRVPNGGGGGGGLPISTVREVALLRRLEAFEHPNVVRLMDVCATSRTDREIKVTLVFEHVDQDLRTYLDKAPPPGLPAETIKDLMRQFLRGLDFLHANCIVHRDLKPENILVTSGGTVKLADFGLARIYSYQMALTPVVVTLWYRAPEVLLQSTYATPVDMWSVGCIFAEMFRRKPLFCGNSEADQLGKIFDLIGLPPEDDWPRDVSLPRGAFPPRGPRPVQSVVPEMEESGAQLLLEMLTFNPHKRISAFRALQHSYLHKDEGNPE
Sequence (P24385 whole entry partner): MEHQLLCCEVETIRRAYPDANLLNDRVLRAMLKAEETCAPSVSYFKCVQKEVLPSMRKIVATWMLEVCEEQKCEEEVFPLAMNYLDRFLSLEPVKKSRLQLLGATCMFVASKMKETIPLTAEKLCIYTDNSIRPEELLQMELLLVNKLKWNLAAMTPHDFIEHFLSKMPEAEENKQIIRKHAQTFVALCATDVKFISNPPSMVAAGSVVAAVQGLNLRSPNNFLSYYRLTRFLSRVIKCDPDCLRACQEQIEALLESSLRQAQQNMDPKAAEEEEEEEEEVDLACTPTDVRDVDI
protocol_description: CDK4/CyclinD1 human kinase inhibition, SPA with GST-pRb substrate
Format: biochemical
conditions: read-out: CDK4 pIC50 (converted)
measured_parameter: IC50 (µM)
Write it as a number; the unit µM goes unstated.

Examples with their reported IC50 follow.
[[record]]
compound = "O=C1NCc2cc(ccc2N2CCOCC2)Nc2nccc(n2)-c2cccc(c2)CCCN2CCC[C@@H]12 [Compound 149]"
obs_value = 0.0724

[[record]]
compound = "O=C1CN2CCN(CC2)Cc2ccc(cc2)Nc2nccc(n2)-c2cccc(c2)CN1 [Compound 193]"
obs_value = 4.37

[[record]]
compound = "O=C1NCc2cccc(c2)-c2ccnc(n2)Nc2cc(cc(C(=O)N3CCOCC3)c2)CN2CCC[C@@H]12 [Compound 32]"
obs_value = 3.31


In: Read the entry O=C1NCc2cccc(c2)-c2ccnc(n2)Nc2cc(CN3CCOCC3)cc(c2)CN2CCC[C@@H]12 [Compound 22] and write its reported IC50.
Out: 2.75
